Answer each item with its documented INHIBITION.
# Tested on: Plasmodium berghei
# experimentalDetails: Screen against P. berghei liver stage (PbLuc), transformed with Luciferase, at 10uM
# Format: functional, HepG2
# conditionDescription: tested at 10 uM
The whole screen tested about 69,000 compounds, of which about 8,600 (12%) showed an effect of 50% or more. What follows is part of a selection rich in strong results, with near analogues and random picks from the rest.
Answers are plain numbers, in %.

Some entries whose results are on file:
compound	systemTested	reading
O=C(NCC(Cc1cccc(F)c1)N1CCCC1=O)C1CCCC1 (stereo not drawn)	Plasmodium berghei	0.923
CN(Cc1ccccn1)C(=O)C(c1ccccc1)N1CCSCC1 (stereo not drawn)	Plasmodium berghei	33.7
O=C(O)[C@@H]1CN(C2CCCCC2)C[C@H]1C1CC1	Plasmodium berghei	9.34
CCn1cc(-c2cc(C(F)(F)F)n(CCCN)n2)cn1	Plasmodium berghei	8.53
CCn1cnnc1C1CCN(C(=O)c2ccc3ccccc3n2)CC1	Plasmodium berghei	26.4
c1cnc(NCC2Cn3nnc(-c4ccoc4)c3CO2)nc1 (stereo not drawn)	Plasmodium berghei	25.2
Cc1ccnc(NC(=O)C2CCN(CCCn3ccnc3C)CC2)c1	Plasmodium berghei	44.3
O=C(NCC1Cn2nnc(-c3ccccc3)c2CO1)c1ccc[nH]1 (stereo not drawn)	Plasmodium berghei	-29
Cn1cc(C(=O)N2CCCC(Cc3cncc4ccccc34)C2)cn1 (stereo not drawn)	Plasmodium berghei	3.91
Cc1cnn(CC2CCCCN2C(=O)c2n[nH]c3ccccc23)c1 (stereo not drawn)	Plasmodium berghei	-43.5

// each listed compound needs a value for INHIBITION
1. O=C([C@H]1COC[C@H]2CN(C3CCCC3)C[C@H]21)N1CCCCO1
2. Cc1ccc(Cl)c(CN2CCN(C)C(C(=O)O)C2)c1F (stereo not drawn)
3. COCCOC(=O)N1C[C@@H]2CC[C@H]1CN(C1Cc3ccccc3C1)C2

## Result
[5.65, -4.52, -55]

// each listed compound needs a value for INHIBITION
1. CCCc1ccc2oc(C(=O)N3CCN(CCOC)CC3)c(C)c2c1
2. Cc1cc(CN(C)C(=O)C(c2ccccc2)N2CCSCC2)no1 (stereo not drawn)
3. N#Cc1ccnc(N2CCC(NCCN3CCOCC3)CC2)c1
4. CSCC(C)(O)CNS(=O)(=O)c1ccc(F)cc1 (stereo not drawn)

## Result
1. -13.1
2. 17.5
3. 66.5
4. 12.3

// each listed compound needs a value for INHIBITION
1. O=C(c1cnccn1)N1CCCC(Cc2cccc3ncccc23)C1 (stereo not drawn)
2. O=C(c1cnco1)N1CCC(Cc2cccc3ncccc23)CC1
3. N#Cc1ccnc(N2CCN(Cc3cccc(F)c3)CC2)c1
4. O=C([C@@H]1COC[C@H]2CN(C3CCCC3)C[C@H]21)N1CCCO1
5. COc1ccc(C(O)CN2CC(n3cc(C)cn3)C2)cc1 (stereo not drawn)
6. Cc1nc(NS(=O)(=O)c2cc(C)c(Br)cc2C)no1

## Result
[70.8, 44.9, -23.7, 35.4, 57.2, 49.4]

// each listed compound needs a value for INHIBITION
1. CC1CCN(C)c2ccccc2N1C(=O)c1ccc(=O)n(C)c1 (stereo not drawn)
2. CC(=O)N1CCCN(C(=O)c2ccc(=O)n(C)c2)c2ccccc21
3. NCC1Cn2nnc(-c3cccc(F)c3)c2CO1 (stereo not drawn)
4. Cc1cc(C)nc(NC2CC(=O)N(C(C)(C)C)C2)n1 (stereo not drawn)
5. Cn1cc(C(=O)N2CCSc3ccccc32)ccc1=O

## Result
-3.12
62.6
6.8
31.2
33.8
